Could you please report measured solubility for the items listed next?
assay: Solubility of the compound at pH 7; format: physicochemical; conditions: buffer
Numbers only, in µg/mL.

Noted for C[C@@H]1CN(CC2CCCCO2)c2ccccc2[C@H](C)N1C(=O)Nc1cccnc1 (mixture of isomers) : its solubility reads 248

Consider the additional compound presented here.
Please fill in: solubility reported for C[C@@H]1CN(Cc2ccccc2)c2ccccc2[C@H](C)N1C(=O)NC1COC1 (racemic) = 148

* * *

assay: Fraction unbound in Wistar rat brain at 100 mg/kg, po after 1 hr by LC-MS/MS analysis; type: ADME, organism-based
assay.readout: fraction unbound at 1 h

Quick note, fraction unbound at 1 h for C[C@@H]1CN(Cc2ccccc2)c2cnccc2[C@H](C)N1C(=O)NCc1ccccc1 (racemic) landed at 0.022

* * *

Provide the reported IC50 of each item.
target: Voltage-dependent T-type calcium channel subunit alpha-1I (Homo sapiens, UniProt Q9P0X4); test: Channel blocking activity at recombinant human CaV 3.3 channel expressed in HEK293 cells assessed as inhibition of Ca2+ flux preincubated for 3 mins followed by CaCl2 addition by fluo-4 dye-based FLIPR assay
Sequence (Q9P0X4 whole entry): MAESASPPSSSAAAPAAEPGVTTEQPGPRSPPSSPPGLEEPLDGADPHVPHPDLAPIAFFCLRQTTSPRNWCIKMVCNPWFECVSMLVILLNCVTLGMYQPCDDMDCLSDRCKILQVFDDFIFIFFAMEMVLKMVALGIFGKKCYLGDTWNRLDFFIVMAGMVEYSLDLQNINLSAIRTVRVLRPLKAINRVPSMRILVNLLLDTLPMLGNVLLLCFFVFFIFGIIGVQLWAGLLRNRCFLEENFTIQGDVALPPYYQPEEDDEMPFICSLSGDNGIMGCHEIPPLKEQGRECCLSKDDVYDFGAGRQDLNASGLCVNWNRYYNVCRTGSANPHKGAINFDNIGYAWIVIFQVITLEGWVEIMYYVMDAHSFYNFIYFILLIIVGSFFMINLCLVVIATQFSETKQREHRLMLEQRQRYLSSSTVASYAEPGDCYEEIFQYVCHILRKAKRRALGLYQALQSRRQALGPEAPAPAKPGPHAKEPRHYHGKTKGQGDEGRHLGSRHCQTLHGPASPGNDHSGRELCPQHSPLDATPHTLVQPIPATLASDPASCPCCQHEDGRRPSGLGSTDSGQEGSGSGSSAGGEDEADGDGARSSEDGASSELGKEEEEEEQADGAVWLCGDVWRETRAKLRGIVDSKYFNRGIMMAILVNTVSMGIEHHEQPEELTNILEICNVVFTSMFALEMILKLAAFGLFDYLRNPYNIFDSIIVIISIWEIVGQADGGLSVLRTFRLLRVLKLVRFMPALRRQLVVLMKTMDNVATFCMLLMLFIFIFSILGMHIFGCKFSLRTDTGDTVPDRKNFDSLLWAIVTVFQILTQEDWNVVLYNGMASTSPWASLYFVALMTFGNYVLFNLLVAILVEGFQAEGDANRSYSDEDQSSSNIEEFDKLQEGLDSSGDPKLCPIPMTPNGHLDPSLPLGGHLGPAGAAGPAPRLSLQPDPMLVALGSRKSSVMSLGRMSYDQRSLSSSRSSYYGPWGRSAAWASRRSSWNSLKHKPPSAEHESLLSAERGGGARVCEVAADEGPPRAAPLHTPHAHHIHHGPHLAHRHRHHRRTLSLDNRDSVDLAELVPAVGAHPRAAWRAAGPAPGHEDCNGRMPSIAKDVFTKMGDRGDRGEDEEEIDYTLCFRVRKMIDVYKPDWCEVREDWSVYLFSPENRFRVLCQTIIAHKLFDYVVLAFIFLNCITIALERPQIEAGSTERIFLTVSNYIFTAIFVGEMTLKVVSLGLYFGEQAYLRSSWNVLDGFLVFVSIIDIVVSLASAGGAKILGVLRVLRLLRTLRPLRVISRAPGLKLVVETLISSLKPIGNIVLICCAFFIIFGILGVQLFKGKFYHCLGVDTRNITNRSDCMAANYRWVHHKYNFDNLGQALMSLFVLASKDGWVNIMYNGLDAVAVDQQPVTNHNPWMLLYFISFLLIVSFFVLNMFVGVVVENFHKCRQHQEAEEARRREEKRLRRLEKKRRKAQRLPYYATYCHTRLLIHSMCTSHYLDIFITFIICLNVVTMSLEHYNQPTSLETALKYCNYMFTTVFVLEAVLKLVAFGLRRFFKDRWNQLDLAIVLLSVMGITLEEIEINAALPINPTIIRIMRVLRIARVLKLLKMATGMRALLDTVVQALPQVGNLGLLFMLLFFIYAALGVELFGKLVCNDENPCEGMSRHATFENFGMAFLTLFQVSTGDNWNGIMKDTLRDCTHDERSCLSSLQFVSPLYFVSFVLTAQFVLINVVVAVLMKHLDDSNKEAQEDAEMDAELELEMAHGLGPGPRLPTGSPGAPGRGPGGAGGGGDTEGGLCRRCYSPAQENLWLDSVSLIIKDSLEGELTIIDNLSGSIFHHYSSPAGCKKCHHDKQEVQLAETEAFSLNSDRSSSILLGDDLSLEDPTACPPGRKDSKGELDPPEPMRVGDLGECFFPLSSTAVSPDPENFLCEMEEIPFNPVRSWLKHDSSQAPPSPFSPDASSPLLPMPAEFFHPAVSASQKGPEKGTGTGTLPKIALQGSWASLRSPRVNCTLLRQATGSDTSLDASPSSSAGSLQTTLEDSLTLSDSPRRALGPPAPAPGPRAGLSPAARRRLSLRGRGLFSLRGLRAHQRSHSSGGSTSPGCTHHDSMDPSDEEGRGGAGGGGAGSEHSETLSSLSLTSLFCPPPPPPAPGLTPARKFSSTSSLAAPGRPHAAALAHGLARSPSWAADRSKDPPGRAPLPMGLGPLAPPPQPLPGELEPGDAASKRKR
Give bare numbers, in nM.

Observe how each entry below is paired with its result.
Per the reported Voltage-dependent T-type calcium channel subunit alpha-1I (Homo sapiens, UniProt Q9P0X4) data, C[C@@H]1CN(Cc2ccccc2)c2ccccc2CN1C(=O)NCc1ccccc1 (racemic) has IC50 of 26

Case COc1ccc(CNC(=O)N2[C@H](C)CN(Cc3ccc(C(F)(F)F)o3)c3cnccc3[C@@H]2C)cc1 (racemic) , Voltage-dependent T-type calcium channel subunit alpha-1I (Homo sapiens, UniProt Q9P0X4), IC50 recorded as 11

// compound C[C@@H]1CN(Cc2ccccc2)c2cc(F)ccc2[C@H](C)N1C(=O)Nc1cccnc1 (racemic) , assay Voltage-dependent T-type calcium channel subunit alpha-1I (Homo sapiens, UniProt Q9P0X4), IC50 value: 4

Could you report IC50 for every entry in the following list?
1. C[C@@H]1CN(Cc2ccccc2)c2ccccc2[C@H](C)N1C(=O)Nc1cccnc1 (racemic)
2. CC(C)CCN1C[C@@H](C)N(C(=O)CCc2cccnc2)[C@@H](C)c2ccccc21 (racemic)

14
13

* * *

biological target: Voltage-dependent T-type calcium channel subunit alpha-1H (Homo sapiens); assay: Channel blocking activity at recombinant human CaV 3.2 channel expressed in HEK293 cells assessed as inhibition of Ca2+ flux preincubated for 3 mins followed by CaCl2 addition by fluo-4 dye-based FLIPR assay
Sequence (O95180 whole entry): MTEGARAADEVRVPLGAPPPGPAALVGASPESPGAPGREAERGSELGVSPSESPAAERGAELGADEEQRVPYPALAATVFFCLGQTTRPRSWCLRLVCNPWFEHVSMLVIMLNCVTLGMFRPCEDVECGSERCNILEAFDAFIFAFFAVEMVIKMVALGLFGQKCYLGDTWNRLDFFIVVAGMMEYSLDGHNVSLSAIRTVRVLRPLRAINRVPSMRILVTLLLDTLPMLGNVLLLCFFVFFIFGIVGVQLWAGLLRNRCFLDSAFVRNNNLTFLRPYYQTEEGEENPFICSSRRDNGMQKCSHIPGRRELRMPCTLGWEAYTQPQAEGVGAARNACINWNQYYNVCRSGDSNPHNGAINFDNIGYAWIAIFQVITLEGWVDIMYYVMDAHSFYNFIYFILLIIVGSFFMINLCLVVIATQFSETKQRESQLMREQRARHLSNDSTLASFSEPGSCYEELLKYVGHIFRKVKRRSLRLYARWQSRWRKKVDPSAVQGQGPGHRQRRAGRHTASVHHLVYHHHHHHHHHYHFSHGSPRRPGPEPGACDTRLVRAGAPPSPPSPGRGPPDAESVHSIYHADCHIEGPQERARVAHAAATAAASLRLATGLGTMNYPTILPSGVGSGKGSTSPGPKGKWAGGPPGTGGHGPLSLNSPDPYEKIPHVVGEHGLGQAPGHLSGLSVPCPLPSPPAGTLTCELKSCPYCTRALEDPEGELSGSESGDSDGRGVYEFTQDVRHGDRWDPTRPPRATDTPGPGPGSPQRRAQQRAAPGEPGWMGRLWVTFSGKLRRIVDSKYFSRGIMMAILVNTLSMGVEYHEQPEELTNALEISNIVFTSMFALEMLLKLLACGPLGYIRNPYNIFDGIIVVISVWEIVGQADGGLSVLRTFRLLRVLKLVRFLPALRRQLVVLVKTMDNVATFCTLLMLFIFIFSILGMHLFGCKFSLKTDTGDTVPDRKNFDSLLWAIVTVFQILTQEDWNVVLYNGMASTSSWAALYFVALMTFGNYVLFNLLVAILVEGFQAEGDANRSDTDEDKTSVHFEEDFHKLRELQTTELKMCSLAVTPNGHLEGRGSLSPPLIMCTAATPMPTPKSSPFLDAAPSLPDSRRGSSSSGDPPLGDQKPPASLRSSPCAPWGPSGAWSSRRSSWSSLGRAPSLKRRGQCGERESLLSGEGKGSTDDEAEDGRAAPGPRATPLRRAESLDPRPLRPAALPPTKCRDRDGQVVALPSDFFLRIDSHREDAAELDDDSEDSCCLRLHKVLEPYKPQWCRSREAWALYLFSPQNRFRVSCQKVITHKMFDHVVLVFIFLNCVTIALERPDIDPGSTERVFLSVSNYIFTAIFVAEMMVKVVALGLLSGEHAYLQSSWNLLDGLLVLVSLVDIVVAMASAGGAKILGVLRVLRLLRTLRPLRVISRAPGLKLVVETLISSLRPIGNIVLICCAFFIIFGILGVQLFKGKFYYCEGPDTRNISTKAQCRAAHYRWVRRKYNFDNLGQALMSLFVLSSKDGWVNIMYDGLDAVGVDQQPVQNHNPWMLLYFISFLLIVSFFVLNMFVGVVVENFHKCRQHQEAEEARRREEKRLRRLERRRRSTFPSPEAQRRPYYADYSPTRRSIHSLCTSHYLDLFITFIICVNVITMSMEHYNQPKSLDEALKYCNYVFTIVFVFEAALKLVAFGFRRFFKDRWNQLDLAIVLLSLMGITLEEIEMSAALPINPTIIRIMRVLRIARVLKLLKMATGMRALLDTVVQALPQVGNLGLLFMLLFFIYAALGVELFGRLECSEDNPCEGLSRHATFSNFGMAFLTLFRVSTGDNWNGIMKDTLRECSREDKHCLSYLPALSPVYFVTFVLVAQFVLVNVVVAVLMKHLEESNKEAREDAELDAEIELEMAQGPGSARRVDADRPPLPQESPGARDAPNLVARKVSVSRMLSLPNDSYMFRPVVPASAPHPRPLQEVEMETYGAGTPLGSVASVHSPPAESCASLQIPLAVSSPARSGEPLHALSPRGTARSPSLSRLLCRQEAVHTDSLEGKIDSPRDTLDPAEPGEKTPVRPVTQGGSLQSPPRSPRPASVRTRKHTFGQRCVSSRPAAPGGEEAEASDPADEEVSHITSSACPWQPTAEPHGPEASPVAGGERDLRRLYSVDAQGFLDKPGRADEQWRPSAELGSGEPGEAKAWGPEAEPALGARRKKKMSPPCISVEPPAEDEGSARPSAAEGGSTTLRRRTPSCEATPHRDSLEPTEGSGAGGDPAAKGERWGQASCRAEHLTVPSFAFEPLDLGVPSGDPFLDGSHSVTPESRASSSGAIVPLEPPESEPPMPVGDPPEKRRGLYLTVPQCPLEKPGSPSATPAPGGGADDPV
Record form. Attribute: IC50. Fill in for each entry.
Give bare numbers, in µM.

Per the record, C[C@@H]1CN(Cc2ccccc2)c2ccccc2[C@H](C)N1C(=O)N1CCOCC1 (racemic) has IC50 of 0.058

Noted for C[C@@H]1CN(Cc2ccccc2)c2ccccc2[C@H](C)N1C(=O)Nc1cccnc1 (racemic) : its IC50 reads 0.061

Input C[C@@H]1CN(Cc2ccccc2)c2cncc(F)c2[C@H](C)N1C(=O)Nc1cccnc1 (racemic) . Output IC50: 0.24

In the following, a different molecule is considered.
Entry C[C@@H]1CN(Cc2ccccc2)c2cccc(F)c2[C@H](C)N1C(=O)CCc1cccnc1 (racemic) — recorded IC50 = 0.052

* * *

target: Voltage-dependent T-type calcium channel subunit alpha-1I (Homo sapiens); experiment: Channel blocking activity at recombinant human CaV 3.3 channel expressed in HEK293 cells assessed as inhibition of Ca2+ flux preincubated for 3 mins followed by CaCl2 addition by fluo-4 dye-based FLIPR assay
pIC50: −log10 of the molar value.
Give 1 (yes) when the value for pIC50 is at least 8. Give 0 (no) when it is less.

Take a look at these entries with their results.
Check the entry C[C@@H]1CN(Cc2ccccc2)c2cnc(Cl)cc2[C@H](C)N1C(=O)NCc1ccccc1 (racemic) : does pIC50 equal or exceed 8?
0 (no)

Say whether C[C@@H]1CN(Cc2ccccc2)c2nc(F)ccc2[C@H](C)N1C(=O)NCc1ccccc1 (racemic) shows pIC50 of 8 or more.
1 (yes)

For this compound, is measured pIC50 8 or higher? C[C@H]1CN(Cc2ccccc2)c2ccccc2[C@H](C)N1C(=O)NCc1ccccc1 (racemic)
0 (no)

Now take the following compound into account.
Check if pIC50 >= 8 (inclusive). Item: C[C@@H]1CN(Cc2ccncc2)c2ccccc2[C@H](C)N1C(=O)NCc1ccccc1 (racemic)
0 (no)

* * *

biological target: Voltage-dependent T-type calcium channel subunit alpha-1H (Homo sapiens); assay: Channel blocking activity at recombinant human CaV 3.2 channel expressed in HEK293 cells assessed as inhibition of Ca2+ flux preincubated for 3 mins followed by CaCl2 addition by fluo-4 dye-based FLIPR assay
Give pIC50 for every item shown.
One number for each entry, as −log10 of the molar value.

# example entries with known answers
For C[C@@H]1CN(Cc2ccccc2)c2ccccc2[C@H](C)N1C(=O)C1CCOCC1 (racemic) the compound record lists pIC50 as 7.33

Recorded pIC50 (compound C[C@H]1c2ccccc2N(Cc2ccccc2)CCN1C(=O)NCc1ccccc1 (racemic) ): 6.62

Kindly give each listed record's pIC50.
1. C[C@@H]1CN(Cc2ccc(C(F)(F)F)o2)c2cnccc2[C@H](C)N1C(=O)NCc1ccccc1 (racemic)
2. C[C@H]1c2ccccc2N(Cc2ccccc2)[C@@H](C)CN1C(=O)NCc1ccccc1 (racemic)
3. [2H]C([2H])(c1ccccc1)N1C[C@@H](C)N(C(=O)NCc2ccccc2)[C@@H](C)c2ccncc21 (racemic)
4. C[C@@H]1CN(Cc2ccccc2)c2cc(F)ccc2[C@H](C)N1C(=O)Nc1cccnc1 (racemic)
5. C[C@@H]1CN(Cc2ccccc2F)c2ccccc2[C@H](C)N1C(=O)Nc1cccnc1 (racemic)
6. C[C@@H]1CN(Cc2ccccc2)c2cnccc2[C@H](C)N1C(=O)NCc1ccccc1

[7.36, 6.33, 6.64, 7.92, 7.96, 6.99]

# batch size: 4; output pIC50 per entry
1. C[C@@H]1CN(Cc2ccccc2)c2ccccc2[C@H](C)N1C(=O)NC1COC1 (racemic)
2. [2H]C([2H])(c1ccccc1)N1C[C@@H](C)N(C(=O)Nc2cccnc2)[C@@H](C)c2ccccc21 (racemic)
3. C[C@@H]1CN(Cc2ccccc2)c2nc(F)ccc2[C@H](C)N1C(=O)NCc1ccccc1 (racemic)
4. COc1ccc(CNC(=O)N2[C@H](C)CN(Cc3ccc(C(F)(F)F)o3)c3cnccc3[C@@H]2C)cc1 (racemic)

7.21
7.60
8.22
7.62

* * *

assay: Intrinsic clearance in human liver microsomes at 1 uM up to 15 mins in presence of NADPH by LC-MS-MS analysis; format: ADME; details: read-out: CLH
Rule: microsomal CLint at 1 µM below 600 µL/min/mg gives Y, anything at or above gives N.

Reference set (3 entries):
# TODO verify microsomal CLint at 1 µM < 600 µL/min/mg strictly for this compound: Cc1ccc2c(n1)N(Cc1ccccc1)C[C@@H](C)N(C(=O)NCc1ccccc1)[C@H]2C (racemic)
N

Determine if C[C@@H]1CN(Cc2ccccc2)c2ccccc2C(=O)N1CCc1ccccc1 (racemic) shows microsomal CLint at 1 µM strictly lower than 600 µL/min/mg.
N

Below 600 µL/min/mg on microsomal CLint at 1 µM? Entry C[C@@H]1CN(Cc2cnc(C(F)(F)F)s2)c2ccccc2[C@H](C)N1C(=O)Nc1cccnc1 (racemic)
N

More entries:
Dear reviewer, please state whether COc1ccc(CNC(=O)N2[C@H](C)CN(CCC(C)C)c3cnccc3[C@@H]2C)cc1 (racemic) has microsomal CLint at 1 µM strictly beneath 600 µL/min/mg.
Y

Determine whether this compound shows microsomal CLint at 1 µM lower than 600 µL/min/mg (ties excluded): C[C@@H]1CN(Cc2ccc(F)cc2)c2ccccc2[C@H](C)N1C(=O)Nc1cccnc1 (racemic)
N

Say whether its microsomal CLint at 1 µM is strictly beneath 600 µL/min/mg. Entry: C[C@@H]1CN(Cc2ccccc2)c2ccccc2[C@H](C)N1C(=O)CN1CCOCC1 (racemic)
N

Please check: microsomal CLint at 1 µM for C[C@@H]1CN(Cc2ccccc2)c2ccccc2[C@H](C)N1C(=O)CCc1cccnc1 (racemic) , strictly under 600 µL/min/mg or not?
N

Quick check: microsomal CLint at 1 µM of C[C@@H]1CN(Cc2ccccc2)c2ncc(F)cc2[C@H](C)N1C(=O)NCc1ccccc1 (racemic) under 600 µL/min/mg?
N

In plain terms, does C[C@@H]1CN(Cc2ccccc2)c2ncccc2[C@H](C)N1C(=O)NCc1ccccc1 (racemic) come in under 600 µL/min/mg for microsomal CLint at 1 µM?
N

Strictly below 600 µL/min/mg: is that where microsomal CLint at 1 µM of C[C@@H]1CN(Cc2ccccc2)c2c(F)cccc2[C@H](C)N1C(=O)Nc1cccnc1 (racemic) sits?
N

For [2H]C([2H])(c1ccccc1)N1C[C@@H](C)N(C(=O)Nc2cccnc2)[C@@H](C)c2ccncc21 (racemic) , is the recorded microsomal CLint at 1 µM below the cut-off of 600 µL/min/mg?
Y

Please determine if C[C@@H]1CN(Cc2cccc(F)c2)c2ccccc2[C@H](C)N1C(=O)Nc1cccnc1 (racemic) is below 600 µL/min/mg in terms of microsomal CLint at 1 µM.
N

Does this compound meet the criterion microsomal CLint at 1 µM < 600 µL/min/mg? C[C@@H]1CN(Cc2ccc(C(F)(F)F)o2)c2ccccc2[C@H](C)N1C(=O)NCc1ccccc1 (racemic)
N

Here's an entry: [2H]C([2H])(c1ccccc1)N1C[C@@H](C)N(C(=O)NCc2ccccc2)[C@@H](C)c2ccncc21 (racemic) . Is its microsomal CLint at 1 µM below 600 µL/min/mg?
Y

Regarding C[C@@H]1CN(Cc2ccccc2)c2cc(F)ccc2[C@H](C)N1C(=O)Nc1cccnc1 (racemic) , kindly confirm whether its microsomal CLint at 1 µM is beneath 600 µL/min/mg.
N

Hi there! Is microsomal CLint at 1 µM for C[C@@H]1CN(c2ccccc2)c2ccccc2[C@H](C)N1C(=O)NCc1ccccc1 (racemic) below 600 µL/min/mg, do you know?
N

Identify whether the compound C[C@@H]1CN(Cc2ccc(C(F)(F)F)o2)c2cnccc2[C@H](C)N1C(=O)NCc1ccccc1 (racemic) records microsomal CLint at 1 µM below 600 µL/min/mg.
Y

In the record for C[C@@H]1CN(Cc2ccccc2)c2cnc(Cl)cc2[C@H](C)N1C(=O)NCc1ccccc1 (racemic) , is microsomal CLint at 1 µM less than 600 µL/min/mg?
N

Bench note: check whether COc1ccc2c(c1)[C@H](C)N(C(=O)Nc1cccnc1)[C@H](C)CN2Cc1ccccc1 (racemic) shows microsomal CLint at 1 µM below 600 µL/min/mg
Y

API: query returns whether the compound falls strictly under 600 µL/min/mg in microsomal CLint at 1 µM. Query: COc1ccc2c(c1)N(Cc1ccccc1)C[C@@H](C)N(C(=O)Nc1cccnc1)[C@H]2C (racemic)
N

For this compound, is microsomal CLint at 1 µM lower than 600 µL/min/mg? C[C@@H]1CN(Cc2ccccc2)c2ccccc2[C@H](C)N1C(=O)NCc1ccccc1 (racemic)
N
